measurement_target: atypical BChE from O. latipes (Oryzias latipes)
Construct: GPI-anchored amphiphilic dimer (G2a)
Sequence (D5L5S0 26-589): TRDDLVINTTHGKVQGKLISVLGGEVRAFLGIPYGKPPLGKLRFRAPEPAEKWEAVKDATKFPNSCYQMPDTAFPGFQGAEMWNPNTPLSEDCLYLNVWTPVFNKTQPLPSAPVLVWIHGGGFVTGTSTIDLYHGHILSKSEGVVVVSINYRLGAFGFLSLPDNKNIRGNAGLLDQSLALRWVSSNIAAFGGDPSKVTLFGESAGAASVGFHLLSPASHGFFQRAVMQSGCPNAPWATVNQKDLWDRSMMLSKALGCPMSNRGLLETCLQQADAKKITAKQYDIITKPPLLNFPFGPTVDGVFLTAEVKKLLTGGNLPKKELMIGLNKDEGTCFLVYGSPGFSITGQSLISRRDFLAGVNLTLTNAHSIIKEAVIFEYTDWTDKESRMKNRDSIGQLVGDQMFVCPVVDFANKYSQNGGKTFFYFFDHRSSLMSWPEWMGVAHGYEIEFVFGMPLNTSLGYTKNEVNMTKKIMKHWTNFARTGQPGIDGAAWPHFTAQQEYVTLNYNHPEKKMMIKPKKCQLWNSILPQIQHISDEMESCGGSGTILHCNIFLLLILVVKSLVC
assay_details: Ellman assay, COS-7 extract, three-parameter logistic fit
Type: biochemical
reported_property: IC50 (nM)
# number only, unit nM dropped from output

Prompt: GET /values?readout=IC50&item= CNC(=O)Oc1ccc2c(c1)[C@]1(C)CCN(C)[C@@H]1N2C [physostigmine]
Response: 58.5

====

So I've got a bunch of compounds here, and I need their IC50 values.
measurement_target: atypical BChE from O. latipes (Oryzias latipes)
Construct: GPI-anchored amphiphilic dimer (G2a)
assay_details: Ellman assay, COS-7 extract, three-parameter logistic fit
Assay type: biochemical
condition_details: read-out: IC50 M
Source text: Ellman assay, COS-7 extract, three-parameter logistic fit on atypical BChE from O. latipes
# number only, unit µM dropped from output

Prompt: GET /values?readout=IC50&item= C=CC[N+](C)(C)c1ccc(CCC(=O)CCc2ccc([N+](C)(C)CC=C)cc2)cc1
Response: 480

Prompt: GET /values?readout=IC50&item= CCN(CC)C(C)CN1c2ccccc2Sc2ccccc21 (stereo not drawn)
Response: 0.898

Prompt: GET /values?readout=IC50&item= CC(C)NP(=O)(NC(C)C)OP(=O)(NC(C)C)NC(C)C
Response: 4580
